# Test system: Mycobacterium tuberculosis
# assay.method.text: Antibacterial activity against isoniazid-resistant Mycobacterium tuberculosis H37Rv by microplate alamar blue assay
# Assay type: functional
observation.type: MIC (µg/mL)
Give the value in µg/mL but do not write µg/mL after it.

// lookup MIC for CCCCCC[C@H](CN1CCC(COc2cccc(/C(=N\OC)c3ccc(Cl)cc3)c2)CC1)OC(N)=O
1.52

// lookup MIC for CO[C@H]1/C=C/O[C@@]2(C)Oc3c(C)c(O)c4c(O)c(c(/C=N/N5CCN(C)CC5)c(O)c4c3C2=O)NC(=O)/C(C)=C\C=C\[C@H](C)[C@H](O)[C@@H](C)[C@@H](O)[C@@H](C)[C@H](OC(C)=O)[C@@H]1C
0.03

// lookup MIC for CCCCCC[C@H](CN1CCC(COc2cccc(C(=O)c3ccc(Cl)cc3)c2)CC1)OC(N)=O
2.91

###

Exercise: state measured MIC for each of the molecules provided.
# Test system: Mycobacterium tuberculosis
# assay.method.text: Antibacterial activity against rifampicin-resistant Mycobacterium tuberculosis H37Rv by microplate alamar blue assay
# Format: functional
Give the value in µg/mL but do not write µg/mL after it.

// lookup MIC for CCCCCC[C@H](CN1CCC(COc2cccc(C(=O)c3ccc(Cl)cc3)c2)CC1)OC(N)=O
2.91

// lookup MIC for CCCCCC[C@H](CN1CCC(COc2cccc(/C(=N\OC)c3ccc(Cl)cc3)c2)CC1)OC(N)=O
1.51

// lookup MIC for NNC(=O)c1ccncc1
0.05

Every entry's value here was drawn from ChEMBL document CHEMBL2046305.
